# System: CAKI-1 renal
# protocol: NCI tumour cell line growth inhibition, 48 h
endpoint: TGI

NC1=CC(=O)c2cccnc2C1=O : 3.15 µM
CCOC1=NC(C(F)(F)F)(C(F)(F)F)N=C(N2CCOCC2)O1 : > 100 µM
CCOC(=O)CCC(NC(=O)Cc1ccc(Nc2nc3ccccc3nc2-c2cccs2)cc1)C(=O)OCC (stereo unspecified) : > 100 µM
COc1ccc(NC(=S)N/N=C\c2ccc(NC(C)=O)cc2)cc1 : > 100 µM
CCCCCC1CC=CC(=O)O1 (stereo unspecified) : 20.5 µM
O=C1c2cccnc2S(=O)(=O)N1c1ccc(Oc2ccccc2)cc1 : > 100 µM
Cn1c(NNc2ccccc2)cc(=O)[nH]c1=O : > 100 µM
CCOc1ccc(N/C(=C(/C(Cl)=C(/Cl)Nc2ccccc2)[N+](=O)[O-])n2nnc3ccccc32)cc1 : 60.4 µM
Cc1cc(=O)[nH]c(N/N=C/c2cc(Br)ccc2O)n1 : 4.89 µM
N#Cc1cnc(-n2[nH]c3c(c2=O)CCCC3)[nH]c1=O : > 100 µM
COc1nc2ccc(COc3ccc(C(=O)NC(CCC(=O)O)C(=O)O)cc3)cc2nc1OC (stereo unspecified) : > 10 µM
